# testSummary: Concentration in mouse gastric mucin after a single oral dose
# Type: in vivo
# runConditions: female, C57/BL6, mouse, gastric mucin, po, 10 mg/kg, mouse, 2.00 h after single dose 10 mg/kg PO; read-out: concentration in gastric mucin, Animal-2
assayReadout: concentration at 2 h (ng/g)

- chemSmiles: "CCCCCC[C@@H](CO)NCc1c[nH]c2c(N)ncnc12"
  measurement: 1080

====

# testSummary: Concentration in mouse gastric mucin after a single oral dose
# Assay type: in vivo
# runConditions: female, C57/BL6, mouse, gastric mucin, po, 10 mg/kg, mouse, 8.00 h after single dose 10 mg/kg PO; read-out: concentration in gastric mucin, Animal-3
# Experimental: (a) Oral Dosing of Mice with 10 mg/kg Hexyl-SerMe-Immucillin A: Female C57/BL6 mice ranging from 5-6 weeks in age and 18-22 grams in weight (Harlan Laboratories) were dosed by oral gavage with of Hexyl-SerMe-Immucillin A (0.4 mL of a 0.5 mg/mL solution in water for injection). […]

- chemSmiles: "CCCCCC[C@@H](CO)NCc1c[nH]c2c(N)ncnc12"
  concentration at 8 h (ng/g): 530

====

# testSummary: Concentration in mouse gastric mucin after a single oral dose
# Assay type: in vivo
# runConditions: female, C57/BL6, mouse, gastric mucin, po, 10 mg/kg, mouse, 0.50 h after single dose 10 mg/kg PO; read-out: concentration in gastric mucin, Animal-2

- compound: "CCCCCC[C@@H](CO)NCc1c[nH]c2c(N)ncnc12 [Hexyl-SerMe-Immucillin A]"
  concentration at 0.5 h [ng/g]: 90200

====

# testSummary: Concentration in mouse gastric mucin after a single oral dose
# Format: in vivo
# runConditions: female, C57/BL6, mouse, gastric mucin, po, 10 mg/kg, mouse, 1.00 h after single dose 10 mg/kg PO; read-out: concentration in gastric mucin, Animal-1
assayReadout: concentration at 1 h (ng/g)

- compound: "CCCCCC[C@@H](CO)NCc1c[nH]c2c(N)ncnc12 [Hexyl-SerMe-Immucillin A]"
  measurement: 20400

====

# testSummary: Concentration in mouse gastric mucin after a single oral dose
# Assay type: in vivo
# runConditions: female, C57/BL6, mouse, gastric mucin, po, 10 mg/kg, mouse, 0.50 h after single dose 10 mg/kg PO; read-out: concentration in gastric mucin, Animal-3

- chemSmiles: "CCCCCC[C@@H](CO)NCc1c[nH]c2c(N)ncnc12"
  readoutUnit: "ng/g"
  concentration at 0.5 h: 60200

====

# testSummary: Concentration in mouse gastric mucin after a single oral dose
# Format: in vivo
# runConditions: female, C57/BL6, mouse, gastric mucin, po, 10 mg/kg, mouse, 2.00 h after single dose 10 mg/kg PO; read-out: concentration in gastric mucin, Animal-1

- chemSmiles: "CCCCCC[C@@H](CO)NCc1c[nH]c2c(N)ncnc12"
  readoutUnit: "ng/g"
  concentration at 2 h: 2020

====

# testSummary: Concentration in mouse gastric mucin after a single oral dose
# Assay type: in vivo
# runConditions: female, C57/BL6, mouse, gastric mucin, po, 10 mg/kg, mouse, 12.0 h after single dose 10 mg/kg PO; read-out: concentration in gastric mucin, Mean
assayReadout: concentration at 12 h (ng/g)

- compound: "CCCCCC[C@@H](CO)NCc1c[nH]c2c(N)ncnc12 [Hexyl-SerMe-Immucillin A]"
  assayReadout: "concentration at 12 h"
  measurement: 740

====

# testSummary: Concentration in mouse gastric mucin after a single oral dose
# Format: in vivo
# runConditions: female, C57/BL6, mouse, gastric mucin, po, 10 mg/kg, mouse, 1.00 h after single dose 10 mg/kg PO; read-out: concentration in gastric mucin, Animal-2
assayReadout: concentration at 1 h (ng/g)

- chemSmiles: "CCCCCC[C@@H](CO)NCc1c[nH]c2c(N)ncnc12"
  assayReadout: "concentration at 1 h"
  measurement: 12200

====

# testSummary: Concentration in mouse gastric mucin after a single oral dose
# Type: in vivo
# runConditions: female, C57/BL6, mouse, gastric mucin, po, 10 mg/kg, mouse, 12.0 h after single dose 10 mg/kg PO; read-out: concentration in gastric mucin, Animal-3
# Protocol: (a) Oral Dosing of Mice with 10 mg/kg Hexyl-SerMe-Immucillin A: Female C57/BL6 mice ranging from 5-6 weeks in age and 18-22 grams in weight (Harlan Laboratories) were dosed by oral gavage with of Hexyl-SerMe-Immucillin A (0.4 mL of a 0.5 mg/mL solution in water for injection). […]

- compound: "CCCCCC[C@@H](CO)NCc1c[nH]c2c(N)ncnc12 [Hexyl-SerMe-Immucillin A]"
  concentration at 12 h: "330 ng/g"

====

# testSummary: Concentration in mouse gastric mucin after a single oral dose
# Format: in vivo
# runConditions: female, C57/BL6, mouse, gastric mucin, po, 10 mg/kg, mouse, 24.0 h after single dose 10 mg/kg PO; read-out: concentration in gastric mucin, Animal-3

- molecule: "CCCCCC[C@@H](CO)NCc1c[nH]c2c(N)ncnc12 [Hexyl-SerMe-Immucillin A]"
  concentration at 24 h [ng/g]: 300

====

# testSummary: Concentration in mouse gastric mucin after a single oral dose
# Assay type: in vivo
# runConditions: female, C57/BL6, mouse, gastric mucin, po, 10 mg/kg, mouse, 4.00 h after single dose 10 mg/kg PO; read-out: concentration in gastric mucin, Animal-2
assayReadout: concentration at 4 h

- chemSmiles: "CCCCCC[C@@H](CO)NCc1c[nH]c2c(N)ncnc12"
  assayReadout: "concentration at 4 h"
  measurement: "3740 ng/g"

====

# testSummary: Concentration in mouse gastric mucin after a single oral dose
# Format: in vivo
# runConditions: female, C57/BL6, mouse, gastric mucin, po, 10 mg/kg, mouse, 2.00 h after single dose 10 mg/kg PO; read-out: concentration in gastric mucin, Mean

- chemSmiles: "CCCCCC[C@@H](CO)NCc1c[nH]c2c(N)ncnc12"
  readoutUnit: "ng/g"
  concentration at 2 h: 6440
